B1: NP_002788.1 (parent)
chain: DGWIRVSSDNVADLHEKYSGSTP

# Variants of: B1
# Test summary: protein stability index of a GFP-peptide fusion (GPS, HEK-293T) (PSI 1-6); higher = more stable;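 also: lentivirally expressed fusion library, cells FACS-sorted into six equal-sized GFP/DsRed ratio bins, PSI computed from sequencing read fractions per bin weighted by bin number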
# Condition label: c terminus: native
Quantity measured: protein stability index
Answers are plain numbers.

P23T 4.51
D13F 2.62
D1P 2.7
E16V 2.92
D1R 2.44

Hi team, please reply with protein stability index for each item in this list.
1. R5C
2. P23N
3. T22K
4. S8G
5. S19E
6. S8K
7. S21I
8. P23Q

## Output
[2.83, 4.71, 4.96, 2.42, 2.87, 2.68, 1.95, 4.78]

FYI, the data here is from the supplement of paper PMC10567573.
